What INHIBITION was measured for each of the following?
# Tested on: Plasmodium berghei
# protocol-details: Screen against P. berghei liver stage (PbLuc), transformed with Luciferase, at 10uM
# Format: functional, HepG2
# experimental-parameters: tested at 10 uM
The campaign covered roughly 69,000 compounds. About 8,600 (12%) showed an effect of 50% or more. This excerpt belongs to a sample that is enriched for strong results.
Supply the numeric figure in %, leaving out any unit text.

# input Consider the compound shown here: COc1ccc(CCNC(=O)C(C)Nc2cc(C)ccc2C)cc1 (stereo unspecified) What is its recorded INHIBITION?
# output 44.9

# input Please answer likewise for Cc1ccc2c(c1)c(Sc1ccccc1)c(CC(=O)O)n2C
# output 12.8

# input Please answer likewise for O=C(Nc1cccc(N2CCOCC2)c1)N[C@H](CO)c1ccccc1
# output 51.8

# input Please answer likewise for CNC(=O)C(C)(C)N1CCC[C@H]1C(=O)NCCN(C)C
# output 49.4

# input Please answer likewise for CN(Cc1ccco1)[C@@H]1CN(Cc2cccnc2)[C@@H]2CCCO[C@H]12
# output 55.5

# input Please answer likewise for COc1cc(CN(C)C(=O)NCC(=O)NC(C)C)ccc1SC
# output 14.3

# input Please answer likewise for O=C(Nc1cccc(N2CCCC2)c1)N[C@H](CCO)c1ccccc1
# output 19.8

# input Please answer likewise for COc1ccc(CN2C[C@@H](N(C)Cc3ccco3)[C@H]3OCCC[C@H]32)cc1
# output 31.8

# input Please answer likewise for CN(Cc1ccco1)[C@@H]1CN(Cc2cccnc2)C[C@@H]2CCCO[C@@H]21
# output 30.4

# input Please answer likewise for CCC(=O)N1CCN(C(=O)Nc2cccc(N3CCOCC3)c2)CC1
# output 23.2

# input Please answer likewise for COc1ccc(CCNC(=O)C(C)Nc2ccc(C)c(C)c2)cc1 (stereo unspecified)
# output 58.5
